Examples of binders with documented Ratio OD(Variant)/OD(WT) follow.
target: HRgpA-6H (Porphyromonas gingivalis) (UniProt P28784); assay: ELISA, coated HRgpA-6H
The answer should be written as a number, with no unit following it.

KB001 mouse Fab VH S56L (Fab, V domains shown) VH: EVQLKQSGPGLVAPSQSLSITCTVSGFSLSIYSVHWVRQPPGKGLEWLGMIWGGGLSDYNSALKSRLSISKDNSKSQVFLKMNSLQTDDTAMYYCARNGNFYAMDYWGQGTSVTVSS VL: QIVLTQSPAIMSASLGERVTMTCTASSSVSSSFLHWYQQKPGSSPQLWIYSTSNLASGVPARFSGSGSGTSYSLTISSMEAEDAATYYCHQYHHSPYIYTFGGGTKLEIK :: 0.807
KB001 mouse Fab VL A25E (Fab, V domains shown) VH: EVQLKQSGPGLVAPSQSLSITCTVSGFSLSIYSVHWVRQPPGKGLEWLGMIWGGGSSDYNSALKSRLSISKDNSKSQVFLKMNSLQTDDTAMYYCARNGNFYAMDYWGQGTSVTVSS VL: QIVLTQSPAIMSASLGERVTMTCTESSSVSSSFLHWYQQKPGSSPQLWIYSTSNLASGVPARFSGSGSGTSYSLTISSMEAEDAATYYCHQYHHSPYIYTFGGGTKLEIK :: 0.837

Kindly consider the entry below.
Any idea what Ratio OD(Variant)/OD(WT) was measured for KB001 mouse Fab VH I31M (Fab, V domains shown) VH: EVQLKQSGPGLVAPSQSLSITCTVSGFSLSMYSVHWVRQPPGKGLEWLGMIWGGGSSDYNSALKSRLSISKDNSKSQVFLKMNSLQTDDTAMYYCARNGNFYAMDYWGQGTSVTVSS VL: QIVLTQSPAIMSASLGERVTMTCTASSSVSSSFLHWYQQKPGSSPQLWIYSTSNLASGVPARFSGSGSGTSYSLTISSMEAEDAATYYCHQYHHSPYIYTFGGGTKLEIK ?
1.03
